methodNotes: Antagonist activity at adenosine receptor A2a in [3H]adenine-labeled guinea pig cerebral cortical slices assessed as inhibition of 2-chloroadenosine-stimulated [3H]-cAMP accumulation
Parameters: species or system Cavia porcellus
valueKind: Ki (µM)
# value in µM; strip the unit string

Input line: Please give the measured Ki for this compound: `Cn1c(=O)c2c(ncn2C)n(C)c1=O`
Output line: 50

====

Each record here notes measured Ki.
tgt: Adenosine receptor A1 (Rattus norvegicus, UniProt P25099)
Sequence (P25099 whole entry): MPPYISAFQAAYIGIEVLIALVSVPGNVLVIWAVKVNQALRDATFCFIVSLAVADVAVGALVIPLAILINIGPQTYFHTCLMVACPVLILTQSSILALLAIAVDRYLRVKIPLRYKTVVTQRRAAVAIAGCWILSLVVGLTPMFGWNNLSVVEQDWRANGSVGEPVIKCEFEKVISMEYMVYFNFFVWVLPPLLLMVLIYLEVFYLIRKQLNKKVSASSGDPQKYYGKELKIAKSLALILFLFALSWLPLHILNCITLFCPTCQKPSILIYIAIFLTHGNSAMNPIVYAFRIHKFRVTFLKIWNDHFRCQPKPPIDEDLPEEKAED
methodNotes: Displacement of [3H]DPCPX from adenosine receptor A1 in rat brain membrane
Format: cell membranes
Please answer using the number first and the unit second.

chemsmiles=Cn1c(=O)c2c(nc(COc3ccc(Cl)cc3)n2C)n(C)c1=O endpointresult="7.6 µM"

Input line: Please give the measured Ki for this molecule: `Cn1c(=O)c2c(nc(OCc3ccc(Cl)cc3)n2C)n(C)c1=O`
Output line: 17.4 µM

Input line: Please give the measured Ki for this molecule: `Cn1c(=O)c2c(nc(CSc3ccccc3)n2C)n(C)c1=O`
Output line: 4.85 µM

Input line: Please give the measured Ki for this molecule: `Cn1c(=O)c2c(nc(SCc3ccc(Cl)cc3)n2C)n(C)c1=O`
Output line: 90 µM

Input line: Please give the measured Ki for this molecule: `Cn1c(=O)c2c(nc(CSc3ccc(Cl)cc3)n2C)n(C)c1=O`
Output line: 20.8 µM

Input line: Please give the measured Ki for this molecule: `Cn1c(=O)c2c(nc(OCc3ccccc3)n2C)n(C)c1=O`
Output line: 1.52 µM

Input line: Please give the measured Ki for this molecule: `Cn1c(=O)c2c(nc(NCc3ccccc3)n2C)n(C)c1=O`
Output line: 7.95 µM

Input line: Please give the measured Ki for this molecule: `Cn1c(=O)c2c(nc(SCc3ccccc3)n2C)n(C)c1=O`
Output line: 4.32 µM

====

Organism: Rattus norvegicus
methodNotes: Selectivity index, ratio of Ki for adenosine receptor A2a in rat striatal membrane to Ki for adenosine receptor A1 in rat brain membrane
Format: cell membranes
valueKind: Ratio Ki
Enter the number alone.

Consider the reported Ratio Ki for these compounds:
chemsmiles=Cn1c(=O)c2c(nc(CCc3ccccc3)n2C)n(C)c1=O endpointresult=0.9
chemsmiles=Cn1c(=O)c2c(nc(OCc3ccc(Cl)cc3)n2C)n(C)c1=O endpointresult=0.2
chemsmiles=Cn1c(=O)c2c(nc(COc3ccccc3)n2C)n(C)c1=O endpointresult=0.8
chemsmiles=Cn1c(=O)c2c(nc(CSc3ccccc3)n2C)n(C)c1=O endpointresult=0.8
chemsmiles=Cn1c(=O)c2c(nc(OCc3ccccc3)n2C)n(C)c1=O endpointresult=2.8
chemsmiles=Cn1c(=O)c2c(nc(COc3ccc(Cl)cc3)n2C)n(C)c1=O endpointresult=0.2
chemsmiles=Cn1c(=O)c2c(nc(NCc3ccccc3)n2C)n(C)c1=O endpointresult=0.6
chemsmiles=Cn1c(=O)c2c(nc(CSc3ccc(Cl)cc3)n2C)n(C)c1=O endpointresult=0.1

Input line: Please give the measured Ratio Ki for this compound: `Cn1c(=O)c2c(nc(SCc3ccccc3)n2C)n(C)c1=O`
Output line: 1.1

Input line: Please give the measured Ratio Ki for this compound: `Cn1c(=O)c2c(nc(SCc3ccc(Cl)cc3)n2C)n(C)c1=O`
Output line: 0.6

====

Each record here notes measured pKi.
tgt: Adenosine receptor A2a (Rattus norvegicus)
Sequence (P30543 whole entry): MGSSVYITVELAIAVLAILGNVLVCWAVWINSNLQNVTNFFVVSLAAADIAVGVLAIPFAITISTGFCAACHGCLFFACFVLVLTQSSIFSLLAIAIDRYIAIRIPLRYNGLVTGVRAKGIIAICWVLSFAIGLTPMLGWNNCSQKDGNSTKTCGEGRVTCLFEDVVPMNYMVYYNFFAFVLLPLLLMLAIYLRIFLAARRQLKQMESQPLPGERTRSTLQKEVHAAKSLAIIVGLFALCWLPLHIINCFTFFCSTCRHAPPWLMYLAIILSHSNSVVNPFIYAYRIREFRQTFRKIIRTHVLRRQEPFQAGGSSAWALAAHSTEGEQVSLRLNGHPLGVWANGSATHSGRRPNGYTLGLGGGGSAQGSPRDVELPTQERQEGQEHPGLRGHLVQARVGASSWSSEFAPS
Recall that pKi is obtained by taking minus log10 of the concentration measured in molar.

Input line: Please give the measured pKi for this compound: `Cn1c(=O)c2c(nc(CSc3ccc(Cl)cc3)n2C)n(C)c1=O`
Output line: 5.82

Input line: Please give the measured pKi for this compound: `Cn1c(=O)c2c(nc(CSc3ccccc3)n2C)n(C)c1=O`
Output line: 5.48
